# assay_protocol: chemical genetic growth profiling, strain panel (AID 1159580);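 note: tested at 20 µM; growth read once vehicle control cultures reached saturation at 30 °C; 1 = growth at the plate median or of vehicle wells; lower values mean less growth of the strain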
# particulars: S. cerevisiae deletion strains, growth OD, locus YLR342W, strain FKS1, active compounds read low
Hit rate of the full screen: of about 5,500 compounds, about 2,000 (36%) were called active. Roughly 18% stayed inconclusive and do not appear here. The list shows a part of the results.
Label MET when normalized growth is strictly below 1; otherwise label NOT MET.

(Q) # TODO verify normalized growth < 1 strictly for this molecule: CN(C)c1ccc2nc3ccc(=[N+](C)C)cc-3sc2c1
(A) NOT MET

(Q) Is the reported normalized growth for COc1cccc2c(C)cc(=O)[nH]c12 strictly below 1?
(A) MET

* * *

# assay_protocol: chemical genetic growth profiling, strain panel (AID 1159580)
# particulars: S. cerevisiae deletion strains, growth OD, locus YNL250W, strain rad50
Among all 5,500 compounds or so, about 2,000 (36%) were called active. Roughly 18% stayed inconclusive and do not appear here. Rule as the data show it: active = normalized growth mostly below about 0.91 (no sharp cut-off); inconclusive = no clear call, values can overlap the other calls; inactive = mostly above about 0.92. The list shows a part of the results.
Allowed answers: Yes (active), No (inactive)

# compound, group
rows = [
    ("NC(=O)c1ncn([C@@H]2O[C@H](CO)[C@@H](O)[C@H]2O)n1", "No"),
    ("COc1ccc2c3c1OC1C(O)CC=C4C(C2)N(C)CCC431 (configuration not stated)", "No"),
    ("Cc1ccccc1OCC(O)CO (configuration not stated)", "No"),
    ("CCOC(=O)c1c(C)cc(OC)cc1O", "No"),
    ("Cc1cc(OC(=O)c2c(C)cc(OC(=O)c3c(C)cc(O)cc3O)cc2O)cc(O)c1C(=O)O", "No"),
]

(Q) # outcome recorded in this test, key = CCOC(=O)c1c(C)cc(O)cc1O
(A) Yes

* * *

# assay_protocol: chemical genetic growth profiling, strain panel (AID 1159580)
# particulars: S. cerevisiae deletion strains, growth OD, locus YPR111W, strain DBF20, active compounds read low
In all, about 5,500 compounds went through this assay and about 2,000 (36%) were called active. Another 18% or so got no clear call; they are omitted. Some of the results follow.
metric_name: normalized growth
// return just the number, without any unit appended

# smi, normalized growth
records = [
    ("O=C1Nc2ccccc2/C1=C\\c1c(Cl)cccc1Cl", 0.952),
]

Now look at this entry.
(Q) Using known records, supply normalized growth for COCCCNC(=S)N/N=C\c1cc(Cl)cc(Cl)c1O
(A) 0.96

* * *

# assay_protocol: chemical genetic growth profiling, strain panel (AID 1159580)
# particulars: S. cerevisiae deletion strains, growth OD, locus YLR058C, strain SHM2
The campaign covered roughly 5,500 compounds. About 2,000 (36%) were called active. Inconclusive results (about 18%) are left out. No stated cut-off is given here; in the data, active means normalized growth mostly below about 0.91 (no sharp cut-off); inconclusive means no clear call, values can overlap the other calls; inactive means mostly above about 0.92. The list shows a part of the results.
Respond with a class label; see active, inactive

# compound, group
records = [
    ("CCN(Cc1ccncc1)C(=O)C(CO)c1ccccc1 (configuration not stated)", "inactive"),
]

(Q) Recorded test outcome, item COc1ccc(-c2cc(=O)c3c(O)cc(O[C@@H]4O[C@H](CO[C@H]5O[C@H](C)[C@@H](O)[C@H](O)[C@@H]5O)[C@@H](O)[C@H](O)[C@H]4O)cc3o2)cc1O
(A) inactive

(Q) Could you please tell me the result logged for Cc1cc(C2CCCCC2)n(O)c(=O)c1 in this assay?
(A) active

(Q) Write down the call the test reported for this compound. Item: COc1cc(O)c2c(=O)c(O)c(-c3ccc(O)c(O)c3)oc2c1
(A) active

(Q) Fill in: this test's call for CC1CC[C@@]2(OC1)O[C@H]1CC3C4CC[C@@H]5C[C@@H](O)CC[C@]5(C)C4CC[C@]3(C)[C@H]1[C@@H]2C (some centres not stated) is ___
(A) inactive

(Q) Call for entry COc1cc(OC)c2c(=O)c(O)c(-c3ccc(OC)c(OC)c3)oc2c1 :
(A) active

(Q) Could you please tell me the result logged for CCC/C=C1\OC(=O)C2=C1CCC=C2 in this assay?
(A) inactive

(Q) Tell me the recorded outcome of this test for COc1ccc(Cl)cc1C(=O)NCCc1ccc(S(=O)(=O)NC(=O)NC2CCCCC2)cc1 .
(A) inactive

(Q) Outcome? CC[n+]1c(-c2ccccc2)c2cc(N)ccc2c2ccc(N)cc21
(A) active

(Q) // outcome(item) with item = COc1ccc(-c2oc3c(CC=C(C)C)c(O[C@@H]4O[C@H](CO)[C@@H](O)[C@H](O)[C@H]4O)cc(O)c3c(=O)c2O[C@@H]2O[C@@H](C)[C@H](O)[C@@H](O)[C@H]2O)cc1
(A) inactive

(Q) What did this assay record as the result for CCCCCCCCCCCC1=C(O)C(=O)C=C(O)C1=O ?
(A) inactive

(Q) Tell me the recorded outcome of this test for C[C@@H]1O[C@@H](OC[C@H]2OC(Oc3c(-c4ccc(OCCO)c(OCCO)c4)oc4cc(OCCO)cc(O)c4c3=O)[C@H](O)[C@@H](O)[C@@H]2O)[C@H](O)[C@H](O)[C@H]1O (some centres not stated) .
(A) inactive

(Q) How was CCOC(=O)NC1=C(C2CC2)C(=O)C(NC(=O)OCC)=C(C2CC2)C1=O classified in this test?
(A) inactive

(Q) For NC(=O)c1ncn([C@@H]2O[C@H](CO)[C@@H](O)[C@H]2O)n1 , which call appears in the assay record?
(A) inactive

(Q) Would you mind telling me which call this test gave CCCCCc1c2c(cc(O)c1C(=O)O)OC(=O)c1c(cc(OC)cc1C(=O)CCCC)O2 ?
(A) inactive

(Q) # fetch the recorded call for NC(=O)NCCCC(N)C(=O)O (configuration not stated) here
(A) inactive

(Q) Check the results log: what was the call for CC(=O)OC1CN2CCC1CC2 (configuration not stated) ?
(A) inactive

* * *

# assay_protocol: chemical genetic growth profiling, strain panel (AID 1159580);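 note: tested at 20 µM; growth read once vehicle control cultures reached saturation at 30 °C; 1 = growth at the plate median or of vehicle wells; lower values mean less growth of the strain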
# particulars: S. cerevisiae deletion strains, growth OD, locus YCL069W, strain vba3, active compounds read low
Out of some 5,500 compounds screened, about 2,000 (36%) were called active. Not shown: some 18% with an inconclusive outcome. This is one part of the list.
Reported normalized growth is given for each of the following molecules.
// keep it numeric: no unit symbol after the value

(Q) Find the measured normalized growth of CC(=O)O[C@@H]1CC2C(C)(C)C(=O)C=C[C@]2(C)C2CC[C@@]3(C)[C@H](c4ccoc4)OC(=O)[C@H]4O[C@]43[C@@]21C (some centres not stated) and report it.
(A) 0.968

(Q) Complete the entry with normalized growth for CC1(C)C(=O)C=C[C@@]2(C)C1C=C[C@]1(C)C2CC[C@@]2(C)[C@H](c3ccoc3)OC(=O)C3OC321 (some centres not stated)
(A) 1

(Q) Identify measured normalized growth corresponding to C=C(C)[C@H]1COc2cc3oc(=O)ccc3cc2O1
(A) 0.783

* * *

# assay_protocol: chemical genetic growth profiling, strain panel (AID 1159580);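 note: tested at 20 µM; growth read once vehicle control cultures reached saturation at 30 °C; 1 = growth at the plate median or of vehicle wells; lower values mean less growth of the strain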
# particulars: S. cerevisiae deletion strains, growth OD, locus YPR119W, strain clb2, active compounds read low
Among all 5,500 compounds or so, about 2,000 (36%) were called active. Another 18% or so got no clear call; they are omitted. The list shows a part of the results.
Overview of reported normalized growth across a group of compounds:
API doc: respond with a numeric literal and nothing else, no unit.

# compound, normalized growth
measured = [
    ("C[C@@H]1CC[C@@]2(NC1)O[C@H]1C[C@H]3C4CC=C5C[C@@H](O)CC[C@]5(C)C4CC[C@]3(C)C1[C@@H]2C (some centres undefined)", 0.0943),
    ("CC(C1OC(C)(C)C(O)C1O)[C@@H]1CC[C@]2(C)C3=CCC4C(C)(C)C(=O)CC[C@]4(C)C3CC[C@@]12C (some centres undefined)", 1.04),
    ("COC(=O)c1c(C)cc(OC)cc1O", 0.972),
    ("C=C(C)[C@H]1COc2cc3oc(=O)ccc3cc2O1", 0.354),
]

(Q) Identify the reported normalized growth for the following entry. CCOC(=O)c1c(C)cc(OC)cc1O
(A) 0.933

(Q) Give normalized growth for the following compound: CC(C)C1COc2cc3oc(=O)ccc3cc2O1 (centres undefined)
(A) 0.336

(Q) Answer with reported normalized growth of CC1CC[C@@]2(OC1)O[C@H]1CC3C4CC[C@@H]5C[C@@H](O)CC[C@]5(C)C4CC[C@]3(C)[C@H]1[C@@H]2C (some centres undefined)
(A) 1.01

(Q) Kindly indicate its recorded normalized growth. Item: Cc1cc(OC(=O)c2c(C)cc(O)cc2O)cc(O)c1C(=O)O
(A) 1.01

(Q) Hello, please tell me recorded normalized growth for this one: CC1CC[C@@]2(OC1)O[C@H]1CC3C4CC[C@@H]5CC(=O)CC[C@]5(C)C4CC[C@]3(C)[C@H]1[C@@H]2C (some centres undefined)
(A) 0.985

* * *

# assay_protocol: chemical genetic growth profiling, strain panel (AID 1159580);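 note: tested at 20 µM; growth read once vehicle control cultures reached saturation at 30 °C; 1 = growth at the plate median or of vehicle wells; lower values mean less growth of the strain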
# particulars: S. cerevisiae deletion strains, growth OD, locus YMR263W, strain SAP30, active compounds read low
The campaign covered roughly 5,500 compounds. About 2,000 (36%) were called active. Roughly 18% stayed inconclusive and do not appear here. Some of the results follow.
metric_name: normalized growth
Answer with a bare number; do not write a unit.

# compound, metric_name, test_result
rows = [
    ("CSc1nsc(SC)c1C(=O)NC(=O)Nc1ccc(F)cc1F", "normalized growth", 0.993),
    ("CC1(C)O[C@H]2CC(=O)OC[C@]23[C@H]2CC[C@@]4(C)[C@H](c5ccoc5)OC(=O)[C@H]5O[C@]54[C@]2(C)C(=O)C[C@@H]13", "normalized growth", 0.985),
]

(Q) Return reported normalized growth. Input compound: Cc1cc(C)c(CSCCNC(=O)Nc2ccc(F)cc2F)c(C)c1
(A) 0.937

(Q) State, in one line, measured normalized growth of CC1(C)C=CC(=O)[C@@]2(C)C1CC(=O)[C@]1(C)C2CC[C@@]2(C)[C@H](c3ccoc3)OC(=O)C3OC321 (some centres undefined)
(A) 0.975
